# TESTED ON: Caspase-8 (UniProt Q14790)
# Sequence (Q14790 217-479 limits assumed): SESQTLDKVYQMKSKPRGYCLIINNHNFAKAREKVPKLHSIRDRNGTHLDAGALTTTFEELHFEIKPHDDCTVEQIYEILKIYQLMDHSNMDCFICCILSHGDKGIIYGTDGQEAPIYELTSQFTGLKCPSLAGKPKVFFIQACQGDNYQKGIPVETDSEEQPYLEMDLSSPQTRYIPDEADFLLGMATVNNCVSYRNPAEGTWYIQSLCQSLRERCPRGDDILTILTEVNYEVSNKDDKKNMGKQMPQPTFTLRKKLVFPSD
# TEST DESCRIPTION: cell-based or functional assay
Numbered stars: 1 amine (or outer) side, 2 acyl side, 3 side chain; on linkers, the order of the positions; unused ones are H or OH. Square brackets hold non-standard residues; d marks the D form. * marks the point of attachment. CH═CH‑CON(CH2Ph)2 = O=C(/C=C/*)N(Cc1ccccc1)Cc1ccccc1; AAsp = aza-Asp, O=C(N(CC(=O)[*:3])N[*:1])[*:2]; CH═CH‑COOCH2Ph = O=C(/C=C/*)OCc1ccccc1; CH:CH‑COOEt = CCOC(=O)/C=C/*; CH═CH‑COOEt = CCOC(=O)/C=C/*; Cbz = O=C(OCc1ccccc1)*
Strictly below 60000 M⁻¹ s⁻¹ in k2: 1. Otherwise: -1.

BINDER	ASSIGNED CLASS
Cbz-IET[AAsp]-{CH═CH‑CONHPh} [Cbz-Ile-Glu-Thr-AAsp-CH═CH-CONHPh]	-1
Cbz-IET[AAsp]-{CH═CH‑CONHCH2CH2Ph} [Cbz-Ile-Glu-Thr-AAsp-CH═CH-CONHCH2CH2Ph]	-1
Cbz-IET[AAsp]-{CH═CH‑CON(CH2Ph)2} (SMILES CC[C@H](C)[C@H](NC(=O)OCc1ccccc1)C(=O)N[C@@H](CCC(=O)O)C(=O)N[C@H](C(=O)NN(CC(=O)O)C(=O)/C=C/C(=O)N(Cc1ccccc1)Cc1ccccc1)[C@@H](C)O) [Cbz-Ile-Glu-Thr-AAsp-CH═CH-CON(CH2Ph)2]	1
Cbz-IET[AAsp]-{CH═CH‑COOCH2Ph} (SMILES CC[C@H](C)[C@H](NC(=O)OCc1ccccc1)C(=O)N[C@@H](CCC(=O)O)C(=O)N[C@H](C(=O)NN(CC(=O)O)C(=O)/C=C/C(=O)OCc1ccccc1)[C@@H](C)O) [Cbz-Ile-Glu-Thr-AAsp-CH═CH-COOCH2Ph]	-1
Cbz-IET[AAsp]-{CH═CH‑COOEt} (SMILES CCOC(=O)/C=C/C(=O)N(CC(=O)O)NC(=O)[C@@H](NC(=O)[C@H](CCC(=O)O)NC(=O)[C@@H](NC(=O)OCc1ccccc1)[C@@H](C)CC)[C@@H](C)O) [Cbz-Ile-Glu-Thr-AAsp-CH═CH-COOEt]	1
Cbz-VEV[AAsp]-{CH:CH‑COOEt} (SMILES CCOC(=O)/C=C/C(=O)N(CC(=O)O)NC(=O)[C@@H](NC(=O)[C@H](CCC(=O)O)NC(=O)[C@@H](NC(=O)OCc1ccccc1)C(C)C)C(C)C) [Cbz-Val-Glu-Val-AAsp-CH═CH-COOEt]	-1
